Taken from patent US4167580A.

# Tested on: Adjuvant Arthritis in Rats
# METHOD SUMMARY: Adjuvant induced arthritis in rats (chronic inflammation with joint destruction)
# Format: in vivo, Royal Hart, Wistar strain rats
# EXPERIMENTAL SETUP: 50 mg./kg. oral, once daily days 0-13
METRIC: Dead/Treated At 21 Days

INSERT INTO results (compound, tested_system, value) VALUES
  ('N#CCC(=N)c1ccccc1 [Benzimidoylacetonitrile, benzimidoylacetonitrile]', 'Adjuvant Arthritis in Rats', '1/24'),
  ('N#CCC(=N)c1ccc(F)cc1 [p-Fluorobenzimidoylacetonitrile, p-fluorobenzimidoylacetonitrile]', 'Adjuvant Arthritis in Rats', '4/36'),
  ('CC(=O)Oc1ccccc1C(=O)O [Aspirin]', 'Adjuvant Arthritis in Rats', '2/21'),
  ('N#CCC(=N)c1cccc(F)c1 [m-Fluorobenzimidoylacetonitrile, m-fluorobenzimidoylacetonitrile]', 'Adjuvant Arthritis in Rats', '1/18');

====

# Test system: Body Temperature of Pyretic Rats
# METHOD SUMMARY: Body temperature in yeast induced pyrexia
# Format: in vivo, Royal Hart, Wistar strain rats
# EXPERIMENTAL SETUP: 250 mg./kg. by gavage 17 hours after yeast; measured 19 hours post challenge
METRIC: Decrease In Body Temp. (°C)

INSERT INTO assay_data (given_smiles, tested_system, value) VALUES
  ('COc1ccc2c(c1)c(CC(=O)O)c(C)n2C(=O)c1ccc(Cl)cc1', 'Body Temperature of Pyretic Rats', 2.5),
  ('CC(=O)Oc1ccccc1C(=O)O', 'Body Temperature of Pyretic Rats', 1.5),
  ('N#CCC(=N)c1ccccc1', 'Body Temperature of Pyretic Rats', 1.4),
  ('CCCCC1C(=O)N(c2ccccc2)N(c2ccccc2)C1=O', 'Body Temperature of Pyretic Rats', 1.5);

====

# Test system: Erythema in Guinea Pigs
# METHOD SUMMARY: Ultraviolet induced erythema in guinea pigs, topical application
# Format: in vivo, Albino guinea pigs
# EXPERIMENTAL SETUP: 1% in ethyl alcohol, 4 hours, maximum score 3.0, ethyl alcohol control 3.0
METRIC: Erythema Score (Avg.) 4 Hr.

INSERT INTO measurements (given_smiles, tested_system, value) VALUES
  ('N#CCC(=N)c1ccccc1', 'Erythema in Guinea Pigs', 2.8),
  ('COc1ccc2c(c1)c(CC(=O)O)c(C)n2C(=O)c1ccc(Cl)cc1', 'Erythema in Guinea Pigs', 2.5),
  ('CCCCC1C(=O)N(c2ccccc2)N(c2ccccc2)C1=O', 'Erythema in Guinea Pigs', 2.4),
  ('CC(=O)Oc1ccccc1C(=O)O', 'Erythema in Guinea Pigs', 2.8);

====

# Test system: Adjuvant Arthritis in Rats
# METHOD SUMMARY: Adjuvant induced arthritis in rats (chronic inflammation with joint destruction)
# Type: in vivo, Royal Hart, Wistar strain rats
# EXPERIMENTAL SETUP: 50 mg./kg. oral, once daily days 0-13
The entries below are paired with their reported Mean Weight Gain, Day 21.
METRIC: Mean Weight Gain, Day 21 (grams)

INSERT INTO results (given_smiles, value) VALUES
  ('CC(=O)Oc1ccccc1C(=O)O', 44),
  ('N#CCC(=N)c1ccccc1', 49),
  ('N#CCC(=N)c1ccc(F)cc1', 57),
  ('N#CCC(=N)c1cccc(F)c1', 60);

====

# Tested on: Adjuvant Arthritis in Rats
# METHOD SUMMARY: Adjuvant induced arthritis in rats (chronic inflammation with joint destruction)
# Assay type: in vivo, Royal Hart, Wistar strain rats
# EXPERIMENTAL SETUP: 50 mg./kg. oral, once daily days 0-13
METRIC: % Inhibition of Swelling (primary lesion), Day 21 (%)

INSERT INTO results (given_smiles, readout_units, value) VALUES
  ('N#CCC(=N)c1ccccc1', '%', 62),
  ('N#CCC(=N)c1cccc(F)c1', '%', 7),
  ('N#CCC(=N)c1ccc(F)cc1', '%', 25),
  ('CC(=O)Oc1ccccc1C(=O)O', '%', 3);
